target: human orexin-2 receptor (Homo sapiens (Human), UniProt O43614); experiment: In vitro intracellular calcium measurements (FLIPR), antagonistic activity on orexin-2 receptor; format: cell-based; settings: CHO cells expressing human orexin-2 receptor; FLIPR; 3 nM orexin-A agonist; 120 min antagonist incubation; geometric mean if determined several times; read-out: IC50 OX2
Sequence (O43614 whole entry): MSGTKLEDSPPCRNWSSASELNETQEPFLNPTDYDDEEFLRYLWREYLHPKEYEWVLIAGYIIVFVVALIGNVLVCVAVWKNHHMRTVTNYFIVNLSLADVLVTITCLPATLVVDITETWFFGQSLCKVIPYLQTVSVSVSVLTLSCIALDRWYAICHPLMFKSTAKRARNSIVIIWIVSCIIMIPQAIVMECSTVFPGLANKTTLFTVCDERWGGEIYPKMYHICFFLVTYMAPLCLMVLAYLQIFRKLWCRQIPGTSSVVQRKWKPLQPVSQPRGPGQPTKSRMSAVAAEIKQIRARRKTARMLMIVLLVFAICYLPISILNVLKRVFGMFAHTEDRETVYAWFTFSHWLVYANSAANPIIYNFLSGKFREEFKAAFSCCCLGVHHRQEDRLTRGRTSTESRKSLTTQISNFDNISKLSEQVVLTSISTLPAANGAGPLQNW
Ranges used to classify IC50: LOW: < 100 nM; MID: ≥ 100 nM and < 700 nM; HIGH: ≥ 700 nM

Example results:
{"columns": ["compound", "label value"],
 "data": [
  ["Cc1ccc(-n2nccn2)c(C(=O)N2CCOC[C@H]2Cc2cccc(-c3ncccn3)c2)c1F [Example 49]", "MID"],
  ["O=C(c1cccc(Cl)c1-n1nccn1)N1CCOC[C@H]1Cc1cc(-c2ncccn2)ccc1F [Example 161]", "MID"],
  ["Cc1ccc(-n2nccn2)c(C(=O)N2CCOC[C@H]2Cc2cccc(-n3nccn3)c2)c1F [Example 29]", "MID"],
  ["O=C(c1cc(F)ccc1-n1nccn1)N1CCOC[C@H]1Cc1cccc(-c2ncon2)c1 [Example 88]", "HIGH"],
  ["Cc1cc(C(=O)N2CCOC[C@H]2Cc2cc(-c3ncon3)ccc2F)c(-n2nccn2)cc1C [Example 179]", "LOW"],
  ["O=C(c1cc(F)c(F)cc1-n1nccn1)N1CCOC[C@H]1Cc1cc(-n2nccn2)ccc1F [Example 137]", "MID"]
]}

Data request: For the record COc1ccc(C[C@@H]2COCCN2C(=O)c2ccccc2-n2nccn2)cc1-c1cccs1 [Example 10] , report the class its IC50 corresponds to.
Data returned: LOW

Data request: Next: Cc1ccc(C(=O)N2CCOC[C@H]2Cc2cccc(-c3ncon3)c2)c(-n2nccn2)c1 [Example 81]
Data returned: MID

Data request: Next: Cc1ccc(-n2nccn2)c(C(=O)N2C[C@@H](C)OC[C@H]2Cc2cc(-n3ccnn3)ccc2F)c1 [Example 140]
Data returned: HIGH

Data request: Next: Cc1cc(C(=O)N2CCOC[C@H]2Cc2cccc(-c3ncon3)c2)c(-n2nccn2)cc1C [Example 85]
Data returned: LOW

Data request: Next: Cc1cccc(C(=O)N2C[C@@H](C)OC[C@H]2Cc2cc(-n3nccn3)ccc2F)c1-n1nccn1 [Example 118]
Data returned: HIGH

Data request: Next: C[C@@H]1CN(C(=O)c2cc(Cl)ccc2-n2nccn2)[C@H](Cc2cccc(-c3ncccn3)c2)CO1 [Example 113]
Data returned: MID

Data request: Next: O=C(c1ccccc1-n1nccn1)N1CCOC[C@H]1Cc1cccc(-n2cccn2)c1 [Example 16]
Data returned: HIGH

Data request: Next: Cc1ccc(-n2nccn2)c(C(=O)N2CCOC[C@H]2Cc2cccc(-c3cnccn3)c2)c1 [Example 41]
Data returned: HIGH

Data request: Next: Cc1cc(C(=O)N2CCOC[C@H]2Cc2ccc(C)c(-c3ncon3)c2)c(-n2nccn2)cc1C [Example 79]
Data returned: LOW

Data request: Next: Cc1cc(C(=O)N2CCOC[C@H]2Cc2cccc(-n3nccn3)c2)c(-n2nccn2)cc1C [Example 35]
Data returned: LOW
